Values from PubChem BioAssay (NCATS)

- testDetails: Quantitative High-Throughput drug screen in 47 multiple myeloma cell lines against the NCATS MIPE library collection: JIM1_ECACC cell viability assay (AID 1918964)
- testConditions: JIM1 myeloma viability, CellTiter-Glo ATP luminescence, 48 h; series mostly up to 45.8 µM
Results filed as inconclusive are left out. Active and inactive are the calls of the source. Calls come from the whole dose curve; as a rule, active = well fitted cell-killing curve with a large enough effect; inconclusive = small, poorly fitted or top-dose-only effect, or effect the other way; inactive = no such curve, though single readings can be large or run the other way.
Permitted responses: class 1 (active), class 0 (inactive)

Some solved cases for reference:
Record request — test call for COc1cc(NCc2ccc3nc(N)nc(N)c3c2C)cc(OC)c1OC
class 1

Call for entry NC(=O)N1c2ccccc2CC(=O)c2ccccc21 :
class 0

For Nc1[nH]c(=O)ncc1F , what call appears in the results of this test?
class 0

For this compound, state the assay outcome: NC(=O)c1ccc2[nH]ccc2c1
class 0

How was COc1ccc2c(c1)c(CC(=O)OCC(=O)O)c(C)n2C(=O)c1ccc(Cl)cc1 classified in this test?
class 0

Further cases:
Test call for this compound, please: CC(C)(C)C(=O)OCOP(=O)(COCCn1cnc2c(N)ncnc21)OCOC(=O)C(C)(C)C
class 1

Per the records of this test, what outcome belongs to CCN(CC)CCn1c(=O)c(Cc2ccc(OC)cc2)nc2ccccc21 ?
class 0

State the result this test recorded for N=C(N)c1ccc(OCCCCCOc2ccc(C(=N)N)cc2)cc1 .
class 0

Can you look up the reported call for CC(=O)Oc1ccccc1C(=O)Nc1ncc([N+](=O)[O-])s1 for me?
class 1

Kindly provide the recorded test outcome for the following compound: C1CCC(C(CC2CCCCN2)C2CCCCC2)CC1 (stereo unspecified)
class 1

What call does the record list for CN(C)c1ccc(C(=C2C=CC(=[N+](C)C)C=C2)c2ccc(N(C)C)cc2)cc1 ?
class 1

---

- testDetails: Quantitative High-Throughput drug screen in 47 multiple myeloma cell lines against the NCATS MIPE library collection: KMS26_JCRB cell viability assay (AID 1918975); note: nearly all actives have a fitted effect of over 45% in size
- testConditions: KMS26 myeloma cells viability, CellTiter-Glo ATP, 48 h; series mostly up to 45.8 µM
Records with an inconclusive call do not appear. The source made the active and inactive calls. Calls follow the shape of the dose curve; as a rule, active = well fitted cell-killing curve with a large enough effect; inconclusive = small, poorly fitted or top-dose-only effect, or effect the other way; inactive = no such curve, though single readings can be large or run the other way.
Give one outcome, nothing more. List: Y = active, N = inactive

Outcome logged for COc1ccc2cc3[n+](cc2c1OC)CCc1cc2c(cc1-3)OCO2 in this assay:
Y

Field: outcome | Entry: COc1ccc(C(=O)CC(=O)c2ccc(C(C)(C)C)cc2)cc1
Y

// return assay outcome for CS(=O)(=O)c1ccc([C@@H](O)[C@@H](CO)NC(=O)C(Cl)Cl)cc1
N

What did this assay record as the result for Nc1nc(=S)c2[nH]cnc2[nH]1 ?
Y

What outcome does the record of this test show for COc1cccc(N(C)C(=S)Oc2ccc3c(c2)CCCC3)n1 ?
N

More entries:
For C[C@@H]1C[C@H]2[C@@H]3CCC4=CC(=O)C=C[C@]4(C)[C@@]3(Cl)[C@@H](O)C[C@]2(C)[C@@]1(OC(=O)c1ccco1)C(=O)CCl , which call appears in the assay record?
Y

Status in this test for CC[C@H](NC(C)C)[C@H](O)c1ccc(O)c2[nH]c(=O)ccc12 ?
N

Dear all, I need the recorded test outcome for Cc1ccnc2c1NC(=O)c1cccnc1N2C1CC1 , thank you.
N

Give the logged outcome of this assay for the following molecule: OC(Cn1cncn1)(Cn1cncn1)c1ccc(F)cc1F
N

Dear all, I need the recorded test outcome for CC(C)(Sc1cc(C(C)(C)C)c(O)c(C(C)(C)C)c1)Sc1cc(C(C)(C)C)c(O)c(C(C)(C)C)c1 , thank you.
N

What was the test verdict on CCc1c2c(nc3ccc(OC(=O)N4CCC(N5CCCCC5)CC4)cc13)-c1cc3c(c(=O)n1C2)COC(=O)[C@]3(O)CC ?
Y

---

- assayedSystem: Mitogen-activated protein kinase 10 (Mus musculus) (UniProt Q61831)
- testDetails: JNK3 AlphaScreen Assay (AID 530);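 note: kinase came from lysate of stimulated human HepG2 cells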; note: potency is the fitted concentration of half-maximal effect
- testConditions: JNK3 lysate, c-Jun phosphorylation; series mostly up to 25.6 µM
Inconclusive results are not listed. Active and inactive are the calls of the source. The call rests on the fitted dose curve; in most records, active means well fitted curve in either direction with a large enough effect (not every such curve was filed as active); inconclusive means small, poorly fitted or top-dose-only effect, or another doubt; inactive means flat fitted curve, though single readings scatter.
parameterMeasured: Potency

Bench note, Mitogen-activated protein kinase 10 (Mus musculus) (UniProt Q61831): entry O=C(O)c1cn(C2CC2)c2cc(N3CCNCC3)c(F)cc2c1=O , its Potency = inactive

Entry CC(C)(Sc1cc(C(C)(C)C)c(O)c(C(C)(C)C)c1)Sc1cc(C(C)(C)C)c(O)c(C(C)(C)C)c1 under Mitogen-activated protein kinase 10 (Mus musculus) (UniProt Q61831) had Potency of inactive

The compound CC1=CC(=O)c2ccccc2C1=O , tested on Mitogen-activated protein kinase 10 (Mus musculus) (UniProt Q61831), showed Potency of inactive

Value (Potency, Mitogen-activated protein kinase 10 (Mus musculus) (UniProt Q61831)) for record Nc1[nH]c(=O)ncc1F = inactive

Per the reported Mitogen-activated protein kinase 10 (Mus musculus) (UniProt Q61831) data, O=c1oc2c(O)c(O)cc3c(=O)oc4c(O)c(O)cc1c4c23 has Potency of 1260 nM (active)

Reported Mitogen-activated protein kinase 10 (Mus musculus) (UniProt Q61831) Potency for item O=C(N[C@H](CO)[C@H](O)c1ccc([N+](=O)[O-])cc1)C(Cl)Cl was inactive

// Potency (Mitogen-activated protein kinase 10 (Mus musculus) (UniProt Q61831)) for O=C(O)c1cc(=O)[nH]c(=O)[nH]1 = inactive

Short answer on Mitogen-activated protein kinase 10 (Mus musculus) (UniProt Q61831) for Cc1cccc(Nc2ccncc2S(=O)(=O)NC(=O)NC(C)C)c1 , Potency: inactive

Next:
Param item: COc1ccc2cc3[n+](cc2c1OC)CCc1cc2c(cc1-3)OCO2 ; param system: Mitogen-activated protein kinase 10 (Mus musculus) (UniProt Q61831); output Potency: inactive

Item: CNNCc1ccc(C(=O)NC(C)C)cc1 | System: Mitogen-activated protein kinase 10 (Mus musculus) (UniProt Q61831) | Potency: inactive

Tested on Mitogen-activated protein kinase 10 (Mus musculus) (UniProt Q61831), the item NNC(=O)c1ccncc1 showed Potency equal to inactive

Bench note, Mitogen-activated protein kinase 10 (Mus musculus) (UniProt Q61831): entry COc1ncnc(NS(=O)(=O)c2ccc(N)cc2)c1OC , its Potency = inactive

For N=C(N)c1ccc(OCCCCCOc2ccc(C(=N)N)cc2)cc1 on Mitogen-activated protein kinase 10 (Mus musculus) (UniProt Q61831), measured Potency was inactive

---

- testDetails: Quantitative High-Throughput drug screen in 47 multiple myeloma cell lines against the NCATS MIPE library collection: MMM1_PLB cell viability assay (AID 1918976); note: potency is the fitted concentration of half-maximal effect; nearly all actives have a fitted effect of over 35% in size
- testConditions: MMM1 myeloma cells viability, CellTiter-Glo, 48 h; series mostly up to 45.8 µM
- Text: PI: Beverly A. Mock Ph.D. Laboratory of Cancer Biology and Genetics, Center for Cancer Research, National Cancer Institute, National Institute of Health, Bethesda, Maryland […] 5; Detector; 425V; Luminescence; Viewlux PerkinElmer. […] 1. […] Briefly, the corresponding myeloma cell lines were screened in 1,536-well plates with 500 cells, 5-uL per well for inhibition of cell viability (assessed by measuring ATP levels with CellTiterGlo). […]
Results filed as inconclusive are left out. Calls of active or inactive are those of the source. Calls follow the shape of the dose curve; as a rule, active = well fitted cell-killing curve with a large enough effect; inconclusive = small, poorly fitted or top-dose-only effect, or effect the other way; inactive = no such curve, though single readings can be large or run the other way.
parameterMeasured: Potency

Recorded results for 2 compounds are shown here.
Form field Potency, entry CC(C)C[C@H](NC(=O)[C@H](CCc1ccccc1)NC(=O)CN1CCOCC1)C(=O)N[C@@H](Cc1ccccc1)C(=O)N[C@@H](CC(C)C)C(=O)[C@@]1(C)CO1 : 0.0833 µM (active)

Per the records, this compound ( C#CCN[C@@H]1CCc2ccccc21 ) has Potency equal to 23.5 µM (active)

Further cases:
# Potency (compound: OCc1ccc(-c2nn(Cc3ccccc3)c3ccccc23)o1 ) is 1.05 µM (active)

For this compound ( O=C(O)c1cccnc1 ), measured Potency is 1.48 µM (active)

Looking up Cc1cccc(Nc2ccncc2S(=O)(=O)NC(=O)NC(C)C)c1 , I see its Potency listed as 20.9 µM (active)

Lookup result for CCOC(=O)[C@H](CCc1ccccc1)N[C@H]1CS[C@H](c2cccs2)CN(CC(=O)O)C1=O ; measured Potency: 16.6 µM (active)

---

- Test system: AA1029
- testDetails: qHTS profiling for inhibitors of Plasmodium falciparum proliferation (AID 504749); note: nearly all actives have a fitted effect of over 60% in size
- testConditions: P. falciparum in erythrocytes, SYBR Green DNA, 72 h; series mostly up to 28.7 µM
Inconclusive results are not listed. Activity calls are given as the source filed them. Calls follow the shape of the dose curve; as a rule, active = well fitted inhibition curve with a large enough effect; inconclusive = small, poorly fitted or top-dose-only effect; inactive = flat fitted curve, though single readings scatter.
In this exercise, the only acceptable responses are active, inactive

Example entries begin here.
Field: outcome | Entry: CC(C)Cn1cnc2c(N)nc3ccccc3c21
inactive

Hey, what did the test say about Cc1ccnc2c1NC(=O)c1cccnc1N2C1CC1 ?
inactive

What is the recorded call for this compound in the test? COc1cc(NCc2ccc3nc(N)nc(N)c3c2C)cc(OC)c1OC
active

With those in mind, consider the next compound.
Test call for this compound, please: CNNCc1ccc(C(=O)NC(C)C)cc1
inactive
